Target: T1, recombinant alipidated human ApoE4 (human, UniProt P02649 19-317)
T1 construct: mature; full length recombinant protein made in E. coli or bought; biotinylated for SPR; position 112 is counted on the mature protein, not on the precursor entry; also called recApoE; non-lipidated ApoE4
T1 sequence (P02649 19-317 C130R): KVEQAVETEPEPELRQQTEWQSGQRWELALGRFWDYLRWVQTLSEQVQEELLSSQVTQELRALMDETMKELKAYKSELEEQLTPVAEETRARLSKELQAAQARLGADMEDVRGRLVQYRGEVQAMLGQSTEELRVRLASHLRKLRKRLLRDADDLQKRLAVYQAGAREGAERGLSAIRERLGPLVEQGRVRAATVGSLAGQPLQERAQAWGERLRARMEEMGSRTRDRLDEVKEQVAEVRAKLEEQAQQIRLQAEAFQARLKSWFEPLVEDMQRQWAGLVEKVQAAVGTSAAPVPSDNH
Assay: SPR (Biacore T200), biotinylated ApoE4 captured on anti-biotin mAb chip, antibody injected, 1:1 fit
Label scheme for koff: low end = under 0.0009 s⁻¹, middle = from 0.0009 s⁻¹ up to 0.005 s⁻¹, high end = 0.005 s⁻¹ and over

{"binder": "HJ1518 (antibody, V domains shown, murine monoclonal antibody from hybridoma) VH: QVQLQQSGPELVKPGASVKISCKASGYTFSDYYINWVKQRPGQGLEWIGWIFPGSGSSYYNEKFKGKATLTVDKSSRTAYMLLSSLTSEDSAVYFCARYYGSSPFAYWGQGTLVTVST VL: DVLMTQSPLSLPVSLGDQASISCRSSQSIVHRNGNTYLEWYLQKPGQSPKLLIYKVSNRFSGVPDRFSGSGSGTDFTLKISRVEAEDLGVYYCFQGSHVPYTFGGGTKLEIRR", "answer-label": "high end"}
{"binder": "HJ1526 (antibody, V domains shown, murine monoclonal antibody from hybridoma) VH: QVQLQQPGTALVKPGASVKLSCKSSGYTFTDYWVHWVKQRPGQGLEWIGNINPRNGGINYNENFKGKAILTVDRSFSIAYMQLNSLTSEDSAVYYCARPGATVVHRTPWFAHWGQGTLVTVSA VL: EIVLTQSPALMAASPGEKVTITCSVSSSISSSNLHWFQQKSETSPKPWIFGTSYLASGVPVRFSGSGSGTSYSLTISSMEAEDAATYYCQQWNSYPLTFGAGTKLELR", "answer-label": "high end"}

Determine which band this binder sits in: HJ1514 (antibody, V domains shown, murine monoclonal antibody from hybridoma) VH: EVNLEESGGGLVQPGGSMKLSCAASGFTFSDAWMDWVRQSPEKGLEWVAEIRNKADNHATYYAESVKGRFTISRNDSKSSVYLQMNSLRTEDTGIYYCVLWDYWGQGTTLTVSS VL: DIVMSQSPSSLAVSAGEKVTMTCKSSQSLLNSRTRKNFLTWYRQKPGQSPKPLIYWASSRESGVPDRFAGSGSGTDFTLTISSVQAEDLAVYYCKQSYNLPWTFGGGTKLEIKR
low end

For this binder, which bin applies? HJ156 (antibody, V domains shown, murine monoclonal antibody from hybridoma; also called HJ156B (biotinylated)) VH: QVQLQQSGPELVKPGASVKISCKASGYIFTDYYINWVKRRPGQGLEWIGWIFPGSGVSYYNEQFKGKATLTVDKPSNTAYIFLSRLTSEDSAVYFCARYYSSSPFAYWGQGTLVTVSA VL: DVLMTQTPLSLPVSLGDQASISCRSSQNIIHSNGNTYLEWFLQRPGQSPELLIYKVSNRFSGVPDRFSGSGSGTDFTLKISRVEAEDLGVYYCFQGSHVPYTFGGGTKLEIKR
middle

Which class holds HJ159 (antibody, V domains shown, murine monoclonal antibody from hybridoma) VH: QVQLQQSGPDLVKPGASVKISCKASGYTFIDYYINWAKQRPGQGLEWIGWIFPGSGSTYYNEKFKGKATLTVDKSSSTAYMFLSSLTSEDSAVFFCARYYGSSPFAYWGQGTLVTVSA VL: DVLMTQTPLSLPVSLGDQASISCRSSQNIVYSNGNTYLEWYLQKPGQSPKLLIYKVSNRFSGVPDRFSGSGSGTYFTLKISRVEAEDLGIYYCFQGSHVPYTFGGGTKLEIKR ?
high end

Note: place this binder into its band. Item: HJ153 (antibody, V domains shown, murine monoclonal antibody from hybridoma; also called HJ153B (biotinylated)) VH: QVQLQQPGAELVKPGASVKLSCKASGYTFTSYWMHWVKQRPGRGLEWIGEIDPSDGFTYNNQNFKDKSTLTVDRSSGTAYLQLSSLTSEDSAVYYCAGSLGRIGLAYWGHGTLVTVSA VL: QIVLTQSPAIMSASPGEKVTISCSASSSVTYMYWYQQKPGASPKSWIYRTSNLASGVPARFSGSGSGTSYSLTISSMEAEDAATYYCQQFQSYPLTFGAGTKLELKR
low end

Which class holds HJ152 (antibody, V domains shown, murine monoclonal antibody from hybridoma; also called HJ152B (biotinylated)) VH: EVKLEESGGGLVQPGGSMKLSCAASGFSFSDAWMDWVRQSPEKGLEWVAEIRNKADNHATFYAESVKGRFTISRDDSKSSVYLQMNSLRAEDSGIYYCLLWDYWGQGTTLTVSS VL: DIVMSQSPSSLAVSAGEKVTMSCKSSQSLLNSRTRKHFLAWYQQKPGQSPKVLIYWASSRESGVPDRFTGSGSGTDFTLTISSVQAEDLAVYYCKQSCNLPWTFGGGTKLEIKR ?
middle

Could you place HJ151 (antibody, V domains shown, murine monoclonal antibody from hybridoma; also called HJ151B (biotinylated)) VH: QVQLQQSGAELVRPGASVTLSCKASGYTFTDYEMHWVKQTPVHGLEWIGVIDPEKGGTAYNQKFKGKAILTADKSSSTAYMDLRSLTSEDSAVYYCLKDSWGQGTTLTVSS VL: DVLMTQTPLSLPVSLGDQASISCRSSQTIVHSDGNTYLEWYLQKPGQSPKLLIYKVSNRFSGVPDRFSGSGSGTYFTLKISRVEAEDLGVYYCFQGSHVPCTFGGGTKLEIKR in its proper category? Many thanks.
middle

Hi there! Could you help me figure out the category for HJ1513 (antibody, V domains shown, murine monoclonal antibody from hybridoma) VH: QIQLQQSGPELVKPGASVKISCKASGYTFTDYYINWVRQRPGQGLEWIGWIYPESFNTYYNEKFKGKATLTVDTSSNTAYMQLSSLTSEDSAVYFCARYYVSSPFAYWGQGTLVTVSA VL: DVLMTQTPLSLPVSLGDQASISCRSSQNIIHSNGNTYLEWFLQKPGQSPKLLIYKVSNRFSGVPDRFSGSGSGTDFTLKISRVEAEDLGVYYCFQGSHVPYTFGGGTKLEIKR please?
low end

Form: Item = HJ154 (antibody, V domains shown, murine monoclonal antibody from hybridoma; also called HJ154B (biotinylated)) VH: QVQLQQPGTEFVMSGASVMLSCKASGYIFTNYWLHWVKQRPGHGLEWIGEIDPSDSYSICNDNFKGKSTLTVDKSSSTAYMQLSSLTSEDSAVYYCAGSLGRVGLAYWGQGTLVTVST VL: QIVLTQSPAIMSASPGEKVTMSCSASSSVSNMYWYQQKPGSSPKSWIYRTSNLASGVPARFSGSGSGTSYSLTISNMEAEDAATYYCQHYQNYPLTFGAGTKLELKR ; Class = ?
low end
